tested on: PfIESI-1 RRM domain (Plasmodium falciparum ortholog aa 875-1232, GST fusion); assay: RBNS R-value (6-mer enrichment in protein-bound RNA vs input library) (ratio); higher = stronger binding preference; the methods of the paper give 50 / 100 / 500 nM protein instead; settings: protein concentration: 1000 nM
In all, about 4,100 sequences were measured (“RBNS R-value (6-mer enrichment in protein-bound RNA vs input library)”: median about 0.99, highest 2% from about 1.4 on). Shown is part of a subset that was picked to be rich in the highest values.
assay.metric: RBNS R-value
Quick one: just the number, no unit, thanks!

# RBNS R-value (sequence: CUUGAA ) is 1.1

# RBNS R-value (sequence: CCUCCG ) is 1.07

# RBNS R-value (sequence: UAACGC ) is 0.884

# RBNS R-value (sequence: GACUAA ) is 0.945

# RBNS R-value (sequence: CCGAGA ) is 1.41

# RBNS R-value (sequence: AAAAAG ) is 1.29

# RBNS R-value (sequence: GCUUGC ) is 0.985

# RBNS R-value (sequence: CUUGAC ) is 1.22

# RBNS R-value (sequence: AACCAA ) is 1.01

# RBNS R-value (sequence: ACUUAC ) is 0.76

# RBNS R-value (sequence: CUUGAU ) is 1.74

# RBNS R-value (sequence: AAAAAU ) is 1.16

# RBNS R-value (sequence: CAGGCA ) is 1.07

# RBNS R-value (sequence: GAAGAC ) is 1.15

# RBNS R-value (sequence: AUUGAG ) is 1.04

# RBNS R-value (sequence: CGGAUG ) is 1.02

# RBNS R-value (sequence: AGUCAA ) is 0.933

# RBNS R-value (sequence: UGACAU ) is 1.12

# RBNS R-value (sequence: GAAAAA ) is 1.37

# RBNS R-value (sequence: UUUGAA ) is 1.05

# RBNS R-value (sequence: UGACAC ) is 1.3

# RBNS R-value (sequence: CUCGUG ) is 0.998

# RBNS R-value (sequence: UUGUCA ) is 0.9

# RBNS R-value (sequence: CUCCUA ) is 0.858

# RBNS R-value (sequence: AUUGAU ) is 1.85

# RBNS R-value (sequence: CGCGAU ) is 1.13

# RBNS R-value (sequence: UACAAA ) is 0.843

# RBNS R-value (sequence: UGACAA ) is 1.08

# RBNS R-value (sequence: AAAGCU ) is 1.03

# RBNS R-value (sequence: AUGAUA ) is 1.63

# RBNS R-value (sequence: AAAGAU ) is 1.11

# RBNS R-value (sequence: GUUGAG ) is 1

# RBNS R-value (sequence: UCGAGA ) is 1.22

# RBNS R-value (sequence: GAAAAU ) is 1.19

# RBNS R-value (sequence: AUUGAC ) is 1.08

# RBNS R-value (sequence: CUAACC ) is 0.903

# RBNS R-value (sequence: UAUGCC ) is 0.903

# RBNS R-value (sequence: CCUCGA ) is 1.11

# RBNS R-value (sequence: CGAAAA ) is 1.23

# RBNS R-value (sequence: CUCUCU ) is 0.867

# RBNS R-value (sequence: UUUGAC ) is 1.12

# RBNS R-value (sequence: AACACA ) is 0.978

# RBNS R-value (sequence: GUUGAU ) is 1.51

# RBNS R-value (sequence: GAAAAC ) is 1.24

# RBNS R-value (sequence: UUGACG ) is 1.07

# RBNS R-value (sequence: UAUUGG ) is 0.873

# RBNS R-value (sequence: AGAAUA ) is 1.1

# RBNS R-value (sequence: CUCCAC ) is 0.993

# RBNS R-value (sequence: CUGAUG ) is 1.97
